Each entry below lists one item and its recorded composite z-score value.
- TEST_SYSTEM: Albumin (Bos taurus) (UniProt P02769)
- Sequence (P02769 whole entry, looked up): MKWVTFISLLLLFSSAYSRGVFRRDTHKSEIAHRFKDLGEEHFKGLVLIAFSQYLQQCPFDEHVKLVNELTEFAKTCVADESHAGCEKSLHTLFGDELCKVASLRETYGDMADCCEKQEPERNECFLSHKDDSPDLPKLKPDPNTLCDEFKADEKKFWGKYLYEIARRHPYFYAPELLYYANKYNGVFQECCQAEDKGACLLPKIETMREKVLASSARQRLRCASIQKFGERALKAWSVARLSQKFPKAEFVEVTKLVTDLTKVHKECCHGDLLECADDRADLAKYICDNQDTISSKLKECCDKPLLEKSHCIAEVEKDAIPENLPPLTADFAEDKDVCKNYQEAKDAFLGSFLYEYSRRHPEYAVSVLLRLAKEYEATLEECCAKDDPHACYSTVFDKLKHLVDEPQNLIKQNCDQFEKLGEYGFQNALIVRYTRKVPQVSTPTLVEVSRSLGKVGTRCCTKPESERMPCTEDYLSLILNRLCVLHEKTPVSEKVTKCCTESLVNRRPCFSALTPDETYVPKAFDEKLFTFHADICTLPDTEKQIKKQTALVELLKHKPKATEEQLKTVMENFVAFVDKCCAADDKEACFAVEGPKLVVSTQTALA
- RUN_DESCRIPTION: bovine serum albumin binders on microarray, profiling panel, artefact control for SMM control protein annotation, biochemical, small-molecule microarray, Alexa647 label, 635/667 nm fluorescence (AID 1118);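 note: score merges 667 nm emission intensity and signal-to-noise per printed compound spot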
- ASSAY_SETUP: BSA-A647 binding, fluorescence 635 nm, higher = more signal
ASSAY_ENDPOINT: composite z-score

[
  {
    "SMILES_DATA": "O=C(NN=C1C[C@@H](O)[C@@H](O)[C@@H]2[C@@H]3C(=O)N(c4ccc(F)cc4F)C(=O)[C@@H]3CC[C@@H]12)OCc1ccccc1",
    "ASSAY_ENDPOINT": "composite z-score",
    "QUANTITATIVE_READOUT": 0.458
  },
  {
    "SMILES_DATA": "CCN1C(=O)[C@H]2[C@H]3[C@H](O)[C@H](O)CC(=NOCC=C(C)CCC=C(C)C)[C@H]3CC[C@H]2C1=O",
    "ASSAY_ENDPOINT": "composite z-score",
    "QUANTITATIVE_READOUT": -1.33
  },
  {
    "SMILES_DATA": "CCOC(=O)CCN1C(=O)[C@H]2[C@H]3[C@H](O)C=CC(=O)[C@@H]3CC[C@H]2C1=O",
    "ASSAY_ENDPOINT": "composite z-score",
    "QUANTITATIVE_READOUT": -0.186
  },
  {
    "SMILES_DATA": "CO[C@H]1COC(=O)[C@@H]2CCCN2C(=O)[C@@H](C)COC(=O)CC=C[C@@H]1C",
    "ASSAY_ENDPOINT": "composite z-score",
    "QUANTITATIVE_READOUT": -0.414
  }
]

----------
- System: Lefty1
- RUN_DESCRIPTION: Lefty1 binders on small-molecule microarrays, primary screen, biochemical, small-molecule microarray, 635/667 nm fluorescence (AID 1139)
- ASSAY_SETUP: small-molecule microarray binding, fluorescence 635/667; higher = more signal
ASSAY_ENDPOINT: composite z-score

[
  {
    "COMPOUND": "CO[C@@H]1COC(=O)[C@@H]2CCCN2C(=O)[C@@H](C)COC(=O)[C@H](COCc2ccccc2)NC(=O)CC=C[C@H]1C",
    "QUANTITATIVE_READOUT": 0.698
  },
  {
    "COMPOUND": "CC=CC1=C(CO)[C@H](O)[C@H]2O[C@H]2[C@H]1O",
    "QUANTITATIVE_READOUT": 0.871
  },
  {
    "COMPOUND": "Cc1cc2c(c(=O)o1)[C@H](O)[C@H]1O[C@H]1C2=O",
    "QUANTITATIVE_READOUT": -0.32
  },
  {
    "COMPOUND": "COc1ccc(-c2ccc3c(n2)CCCN3CC(O)CN2CCCc3nc(C)c(C)cc32)cc1 (centres undefined)",
    "QUANTITATIVE_READOUT": 1.05
  },
  {
    "COMPOUND": "COC(=O)C1(C)C=C2C(=C(c3ccccc3)C(=O)C2C)CN1 (centres undefined)",
    "QUANTITATIVE_READOUT": -1.5
  },
  {
    "COMPOUND": "CC(=O)OC[C@H]1O[C@H](CCON=C(C)CCC(=O)OC[C@H]2O[C@H](C#Cc3ccccc3)C=C[C@@H]2Oc2ccc(C)cc2)C=C[C@@H]1OC(C)=O",
    "QUANTITATIVE_READOUT": 0.802
  },
  {
    "COMPOUND": "COC(=O)c1c(CC[C@@H](CO)NC(=O)N[C@H](Cc2ccccc2)Cn2cc(-c3ccccc3N)nn2)oc(C(C)=O)c1C(=O)OC",
    "QUANTITATIVE_READOUT": 0.348
  },
  {
    "COMPOUND": "CC(C)[C@H](NC(=O)OC(C)(C)C)[C@@H](O)CC(=O)OC(C)(C)C",
    "QUANTITATIVE_READOUT": 0.123
  },
  {
    "COMPOUND": "CCOC(=O)[C@H](Cc1ccccc1)NC(=O)CCC1CC(OC(=O)NCc2ccc3c(c2)OCO3)CC2(CCCC(COC(=O)NCC3CCCCC3)O2)O1 (some centres undefined)",
    "QUANTITATIVE_READOUT": 0.876
  },
  {
    "COMPOUND": "CC(C)N1CC=CC23O[C@@H]4C=CCCOC(=O)C4[C@H]2C(=O)N(CCCCCCO)[C@@H]3C1=O (some centres undefined)",
    "QUANTITATIVE_READOUT": -0.187
  },
  {
    "COMPOUND": "COC(=O)[C@@]1(Cc2ccccc2)[C@H]2c3cc(C(=O)N4CCCC4)n(Cc4ccccn4)c3C[C@H]2CN1C(=O)c1ccccc1",
    "QUANTITATIVE_READOUT": 0.19
  },
  {
    "COMPOUND": "COCCNC(=O)OCC1CCCC2(CC(OC(=O)NCCc3ccc(F)cc3)CC(CCC(=O)N[C@@H](C)C(=O)OC)O2)O1 (some centres undefined)",
    "QUANTITATIVE_READOUT": 0.969
  },
  {
    "COMPOUND": "C=CCN1C(=O)[C@]2(O[C@H](CCn3cc(CCO)nn3)[C@@H]([Si](C)(C)c3ccc(OC)cc3)[C@@H]2C)c2cc(N3CCOC3=O)ccc21",
    "QUANTITATIVE_READOUT": 0.0269
  },
  {
    "COMPOUND": "COC(=O)[C@H](C)NC(=O)CCC1CC(OC(=O)NCc2cccc3ccccc23)CC2(CCCC(COC(=O)NCCc3ccc(Cl)cc3)O2)O1 (some centres undefined)",
    "QUANTITATIVE_READOUT": 1.03
  },
  {
    "COMPOUND": "C=C(/C(=C/C[C@@H](OC(=O)c1ccncc1)c1ccc(OCCO)cc1)c1cnc2ccccc2c1)C(C)C",
    "QUANTITATIVE_READOUT": 1.5
  },
  {
    "COMPOUND": "CO[C@H]1O[C@H](CO)[C@@H](OC(=O)Nc2ccc3c(c2)OCO3)[C@H](OC(=O)Nc2ccccc2-c2ccccc2)[C@@H]1OC(=O)Nc1ccccc1-c1ccccc1",
    "QUANTITATIVE_READOUT": 0.186
  },
  {
    "COMPOUND": "COc1ccc(O[C@H]2C=C[C@@H](c3ccccc3)O[C@@H]2COC(=O)N2CCCCC2)cc1",
    "QUANTITATIVE_READOUT": 0.225
  },
  {
    "COMPOUND": "Cc1ccc(S(=O)(=O)N[C@@H]2COC(=O)[C@H](C)COC(=O)CC=C[C@H]2C)cc1",
    "QUANTITATIVE_READOUT": 1.38
  },
  {
    "COMPOUND": "CC1CC/C=C\\[C@H]2OC34C=CCN(Cn5nnc6ccccc65)C(=O)[C@H]3N(CCO)C(=O)[C@@H]4C2C(=O)O1 (some centres undefined)",
    "QUANTITATIVE_READOUT": -0.428
  },
  {
    "COMPOUND": "O=C1[C@H]2[C@H]3[C@H](O)[C@H](O)CC(=NOCc4ccccc4)[C@@H]3CC[C@H]2C(=O)N1Cc1ccccc1",
    "QUANTITATIVE_READOUT": 0.597
  },
  {
    "COMPOUND": "CN(C)C(=O)[C@@]1(Cc2ccccc2)N=C(c2ccc(OCCCO)cc2)O[C@H]1c1ccccc1CN=[N+]=[N-]",
    "QUANTITATIVE_READOUT": 0.485
  },
  {
    "COMPOUND": "CCCCCCc1nc(CCCc2cc3c(c(CCCCCC)n2)[Si](C(C)C)(C(C)C)O[C@H]3c2ccccc2)cc2c1[Si](C(C)C)(C(C)C)O[C@H]2c1ccccc1",
    "QUANTITATIVE_READOUT": 0.778
  },
  {
    "COMPOUND": "CC(C)CON=C1C[C@@H](O)[C@@H](O)[C@@H]2[C@@H]3C(=O)N([C@@H](C)c4ccccc4)C(=O)[C@@H]3CC[C@H]12",
    "QUANTITATIVE_READOUT": 1.4
  },
  {
    "COMPOUND": "CC(CCC(=O)OC[C@H]1O[C@H](C#Cc2ccccc2)C=C[C@@H]1Oc1ccc(C)cc1)=NO[C@@H](C)c1cn([C@H](CO)Cc2ccccc2)nn1",
    "QUANTITATIVE_READOUT": 0.393
  },
  {
    "COMPOUND": "N#Cc1ccc(NN2C(C(O)c3cc(C(F)(F)F)cc(C(F)(F)F)c3)C=CC3C(=O)N(c4ccccc4)C(=O)C32)cc1 (centres undefined)",
    "QUANTITATIVE_READOUT": 0.265
  },
  {
    "COMPOUND": "CC(CCC(=O)OC[C@H]1O[C@H](C#Cc2ccccc2)C=C[C@@H]1Oc1ccc(C)cc1)=NOC[C@@H](O)COCc1ccco1",
    "QUANTITATIVE_READOUT": -2.17
  },
  {
    "COMPOUND": "COCC1=C2[C@@H](CCc3ccccc3)OB(O)C[C@@H]2n2c(=O)n(-c3ccccc3)c(=O)n2C1",
    "QUANTITATIVE_READOUT": 0.336
  },
  {
    "COMPOUND": "COCCOC(=O)N1C(=O)[C@@]2(c3cc(C#Cc4ccc(OC)cc4)ccc31)[C@H](C(=O)N1CCN(c3ncccn3)CC1)[C@H]1C(=O)O[C@H](c3ccccc3)[C@H](c3ccccc3)N1[C@@H]2c1ccc(OCCO)cc1",
    "QUANTITATIVE_READOUT": 0.786
  },
  {
    "COMPOUND": "CCOC(=O)NN=C1C[C@@H](O)[C@@H](O)[C@@H]2[C@@H]3C(=O)N(C(C)(C)C)C(=O)[C@@H]3CC[C@@H]12",
    "QUANTITATIVE_READOUT": -0.519
  }
]
